ASSAY NAME: Pharmacokinetic test in mice
Type: in vivo, ICR mice
CONDITION LABEL: mouse, in vivo, iv, plasma, i.v. (2.5 mg/kg)
Experimental: 3.1 Experimental animals: Male ICR mice, 20-25 g, 6 mice/compound, purchased from Chengdu Dossy Experimental Animals Co., Ltd. 3.2 Experimental design: On the day of the experiment, the ICR mice were randomly grouped according to their body weights. The animals were fasted with water available for 12-14 h one day before the administration, and were fed 4 h after the administration. Table 3.1 Administration information […]
PARAMETER: clearance
Report the figure along with its unit, number first.

Value of clearance reported for the molecule C=C1CCN(S(=O)(=O)Nc2ccc(F)c(Oc3ccc4ncn(CC(F)F)c(=O)c4c3)c2C#N)C1 is 0.282 mL/min/kg

The reported measurements were obtained from patent EP4813985A1.
